# target_or_system: RPS6KA2(Kin.Dom.1) (Homo sapiens)
# Construct: RPS6KA2(Kin.Dom.1); purchased DiscoverX (KINOMEscan)
# Sequence (Q15349 1-388 limits assumed): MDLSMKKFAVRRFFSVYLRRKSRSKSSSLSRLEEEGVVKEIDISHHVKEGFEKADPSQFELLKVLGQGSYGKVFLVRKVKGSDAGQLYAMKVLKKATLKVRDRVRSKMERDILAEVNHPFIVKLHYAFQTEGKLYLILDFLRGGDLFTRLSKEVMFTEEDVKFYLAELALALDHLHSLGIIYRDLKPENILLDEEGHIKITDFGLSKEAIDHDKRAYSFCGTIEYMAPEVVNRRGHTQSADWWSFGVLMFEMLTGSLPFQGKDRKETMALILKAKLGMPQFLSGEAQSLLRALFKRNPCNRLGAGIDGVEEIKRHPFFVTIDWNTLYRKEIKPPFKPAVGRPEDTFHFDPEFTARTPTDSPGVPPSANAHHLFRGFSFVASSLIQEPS
# run_description: KINOMEscan competitive binding
# setup_conditions: n=1, read-out: Percent inhibition, RPS6KA2(Kin.Dom.1)
endpoint_name: inhibition at 10 µM

> print(dat)
                             smiles.notation  result
 1  CN1CCN(c2ccc(Nc3nccc(-c4cnn5ncccc45)n3)cc2C#N)CC1   77.6%
 2   c1ccc(COc2cccc(-c3ccnc4[nH]ccc34)c2)cc1      0%
 3  C[C@@H](Oc1cc(-c2cnc3ccccn23)sc1C(N)=O)c1ccccc1Cl     70%
 4     COc1ccc(Nc2nccc(-c3cnn4ncccc34)n2)cc1      0%
 5              Nc1ncc2c(-c3ccncc3)c[nH]c2n1      0%
 6  Cc1ccc(O)cc1Nc1ccnc(Nc2cccc(C(N)=O)c2)n1      0%
 7  Fc1cccc(COc2ccc(Nc3ncnc4c3CN(CCN3CCOCC3)CC4)cc2Cl)c1      0%
 8           Clc1ccc(Nc2ncc(-c3ccccc3)s2)cc1      0%
 9  COc1cc(Nc2nccc(-c3sc(N)nc3-c3cccc(NC(=O)c4c(F)cccc4F)c3)n2)cc(OC)c1OC   97.2%
10  Cc1ccc(O)cc1N(C)c1ccnc(Nc2cccc(S(N)(=O)=O)c2)n1      0%

----------
# target_or_system: ULK3(mouse) (Mus musculus)
# Construct: purchased DiscoverX (KINOMEscan)
# Sequence (Q3U3Q1 whole entry): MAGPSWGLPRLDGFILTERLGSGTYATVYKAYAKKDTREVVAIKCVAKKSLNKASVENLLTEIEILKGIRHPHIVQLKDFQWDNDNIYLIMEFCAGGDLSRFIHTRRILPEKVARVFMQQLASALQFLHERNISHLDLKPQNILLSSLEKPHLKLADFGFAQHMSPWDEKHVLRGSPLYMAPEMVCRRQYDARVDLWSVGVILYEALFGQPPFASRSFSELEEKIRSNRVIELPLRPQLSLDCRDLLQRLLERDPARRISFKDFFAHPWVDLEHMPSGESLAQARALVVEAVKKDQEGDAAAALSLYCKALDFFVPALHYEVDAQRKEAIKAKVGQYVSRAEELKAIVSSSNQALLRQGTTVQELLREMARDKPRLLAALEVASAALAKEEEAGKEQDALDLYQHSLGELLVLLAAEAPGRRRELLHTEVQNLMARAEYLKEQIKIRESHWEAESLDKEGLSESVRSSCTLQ
# run_description: KINOMEscan competitive binding
# setup_conditions: n=1, read-out: Percent inhibition, ULK3(mouse)
Everything with inhibition at 10 µM lower than 90% is -1; everything else, including exactly 90%, is 1.

> print(dat)
                            smiles.notation  qualitative.label
1  Cc1ccc(O)cc1N(C)c1ccnc(Nc2cccc(S(N)(=O)=O)c2)n1                  1
2  COc1cc(Nc2nccc(-c3sc(N)nc3-c3cccc(NC(=O)c4c(F)cccc4F)c3)n2)cc(OC)c1OC                  1
3   c1ccc(COc2cccc(-c3ccnc4[nH]ccc34)c2)cc1                 -1
4  C[C@@H](Oc1cc(-c2cnc3ccccn23)sc1C(N)=O)c1ccccc1Cl                 -1
5  CN1CCN(c2ccc(Nc3nccc(-c4cnn5ncccc45)n3)cc2C#N)CC1                  1
6           Clc1ccc(Nc2ncc(-c3ccccc3)s2)cc1                 -1
7  Fc1cccc(COc2ccc(Nc3ncnc4c3CN(CCN3CCOCC3)CC4)cc2Cl)c1                 -1

----------
# target_or_system: CLK2 (Homo sapiens, UniProt P49760)
# Construct: purchased DiscoverX (KINOMEscan)
# Sequence (P49760 whole entry): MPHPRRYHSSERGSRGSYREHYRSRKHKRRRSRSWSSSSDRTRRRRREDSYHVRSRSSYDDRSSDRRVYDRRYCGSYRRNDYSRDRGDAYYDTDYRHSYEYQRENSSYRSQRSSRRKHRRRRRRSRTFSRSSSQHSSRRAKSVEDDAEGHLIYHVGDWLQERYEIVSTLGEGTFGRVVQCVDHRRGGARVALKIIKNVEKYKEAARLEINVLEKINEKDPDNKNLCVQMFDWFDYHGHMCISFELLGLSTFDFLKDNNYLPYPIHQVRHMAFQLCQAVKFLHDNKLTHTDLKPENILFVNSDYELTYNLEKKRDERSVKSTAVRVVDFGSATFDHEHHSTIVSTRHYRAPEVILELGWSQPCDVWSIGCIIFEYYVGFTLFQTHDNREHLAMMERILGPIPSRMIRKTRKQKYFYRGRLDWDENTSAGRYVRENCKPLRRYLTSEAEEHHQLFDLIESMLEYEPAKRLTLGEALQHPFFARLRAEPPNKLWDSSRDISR
# run_description: KINOMEscan competitive binding
# setup_conditions: 10 µM, n=1; kinase CLK2; read-out: Percent inhibition CLK2
endpoint_name: inhibition at 10 µM

> print(dat)
                            smiles.notation  result
1  CN1CCN(c2ccc(Nc3nccc(-c4cnn5ncccc45)n3)cc2C#N)CC1    100%
2  COc1cc(Nc2nccc(-c3sc(N)nc3-c3cccc(NC(=O)c4c(F)cccc4F)c3)n2)cc(OC)c1OC      0%
3  C[C@@H](Oc1cc(-c2cnc3ccccn23)sc1C(N)=O)c1ccccc1Cl      0%
4  Fc1cccc(COc2ccc(Nc3ncnc4c3CN(CCN3CCOCC3)CC4)cc2Cl)c1      0%
